Test system: Candida albicans
assay_details: Anti-adherence activity against Candida albicans serotype B assessed as fungal adhesion to human BECs at 13.8 mM co- incubated for 90 mins with yeast cells and BECs by crystal violet staning based microscopic method relative to control
Assay type: functional
measurement_context: 1.5 h
parameter: Fungal adhesion relative to control (%)
Report the figure in % without appending any unit label.

O=c1c(NCc2cn(CCO[C@@H]3O[C@H](CO)[C@H](O)[C@H](O)[C@H]3O)nn2)c(NCc2cn(CCO[C@@H]3O[C@H](CO)[C@H](O)[C@H](O)[C@H]3O)nn2)c1=O: 69
O=C(NCc1cn([C@@H]2O[C@H](CO)[C@H](O)[C@H](O)[C@H]2O)nn1)[C@H]1[C@H](C(=O)NCc2cn([C@@H]3O[C@H](CO)[C@H](O)[C@H](O)[C@H]3O)nn2)[C@H]2C=C[C@@H]1C2: 62

Shifting focus to the compound that follows.
Enquiry: Sample O=c1c(NCc2cn([C@@H]3O[C@H](CO)[C@H](O[C@@H]4O[C@H](CO)[C@H](O)[C@H](O)[C@H]4O)[C@H](O)[C@H]3O)nn2)c(NCc2cn([C@@H]3O[C@H](CO)[C@H](O[C@@H]4O[C@H](CO)[C@H](O)[C@H](O)[C@H]4O)[C@H](O)[C@H]3O)nn2)c1=O — what was its Fungal adhesion relative to control?
Return: 64

----------
assay_details: Toxicity against Candid albicans serotype B assessed as reduction in fungal growth at 0.0133 to 3.4 mM
measurement_context: candida albicans, 3400 µM; dose 0.0133-3.4 mM
parameter: Activity

O=c1c(NCc2cn(CCO[C@@H]3O[C@H](CO)[C@H](O)[C@H](O)[C@H]3O)nn2)c(NCc2cn(CCO[C@@H]3O[C@H](CO)[C@H](O)[C@H](O)[C@H]3O)nn2)c1=O: Non-Toxic
O=C(NCc1cn([C@@H]2O[C@H](CO)[C@H](O)[C@H](O)[C@H]2O)nn1)[C@@H]1[C@H](C(=O)NCc2cn([C@@H]3O[C@H](CO)[C@H](O)[C@H](O)[C@H]3O)nn2)[C@@H]2C=C[C@H]1C2: Non-Toxic
O=C(NCc1cn([C@@H]2O[C@H](CO)[C@H](O)[C@H](O)[C@H]2O)nn1)c1ccc(C(=O)NCc2cn([C@@H]3O[C@H](CO)[C@H](O)[C@H](O)[C@H]3O)nn2)cc1: Non-Toxic
O=c1c(NCc2cn([C@@H]3O[C@H](CO)[C@H](O)[C@H](O)[C@H]3O)nn2)c(NCc2cn([C@@H]3O[C@H](CO)[C@H](O)[C@H](O)[C@H]3O)nn2)c1=O: Non-Toxic

Enquiry: Sample CCC(=O)Nc1cc(C(=O)NCc2cn([C@@H]3O[C@H](CO)[C@H](O)[C@H](O)[C@H]3O)nn2)cc(C(=O)NCc2cn([C@@H]3O[C@H](CO)[C@H](O)[C@H](O)[C@H]3O)nn2)c1 — what was its Activity?
Return: Non-Toxic

----------
System: Candida albicans
assay_details: Anti-adherence activity against Candida albicans serotype B assessed as fungal adhesion to human BECs at 13.8 mM co- incubated for 90 mins with yeast cells and BECs by crystal violet staning based microscopic method relative to control
Format: functional
measurement_context: 1.5 h
parameter: Fungal adhesion relative to control (%)
Report the figure in % without appending any unit label.

Examples with answers:
O=C1[C@@H]2[C@H](C(=O)N1Cc1cn([C@@H]3O[C@H](CO)[C@H](O)[C@H](O)[C@H]3O)nn1)[C@@H]1C=C[C@H]2C1: 83
O=C(NCc1cn([C@@H]2O[C@H](CO)[C@H](O)[C@H](O)[C@H]2O)nn1)[C@@H]1[C@H](C(=O)NCc2cn([C@@H]3O[C@H](CO)[C@H](O)[C@H](O)[C@H]3O)nn2)[C@@H]2C=C[C@H]1C2: 61
O=C(NCc1cn([C@@H]2O[C@H](CO)[C@H](O)[C@H](O)[C@H]2O)nn1)c1ccc(C(=O)NCc2cn([C@@H]3O[C@H](CO)[C@H](O)[C@H](O)[C@H]3O)nn2)cc1: 38
CCC(=O)Nc1cc(C(=O)NCc2cn([C@@H]3O[C@H](CO)[C@H](O)[C@H](O)[C@H]3O)nn2)cc(C(=O)NCc2cn([C@@H]3O[C@H](CO)[C@H](O)[C@H](O)[C@H]3O)nn2)c1: 59

Shifting focus to the compound that follows.
Enquiry: Sample O=c1c(NCc2cn([C@@H]3O[C@H](CO)[C@H](O)[C@H](O)[C@H]3O)nn2)c(NCc2cn([C@@H]3O[C@H](CO)[C@H](O)[C@H](O)[C@H]3O)nn2)c1=O — what was its Fungal adhesion relative to control?
Return: 83
